Molecular target: soluble plasma Fn
Sequence (P02751 32-290 limits assumed): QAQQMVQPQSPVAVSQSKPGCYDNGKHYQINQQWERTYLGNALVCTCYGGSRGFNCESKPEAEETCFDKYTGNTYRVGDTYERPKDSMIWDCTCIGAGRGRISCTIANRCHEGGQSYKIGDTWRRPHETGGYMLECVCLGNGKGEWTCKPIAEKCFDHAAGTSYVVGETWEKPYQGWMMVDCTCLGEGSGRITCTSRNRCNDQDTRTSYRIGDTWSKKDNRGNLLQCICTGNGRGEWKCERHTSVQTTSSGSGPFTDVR
Assay: Fluorescence anisotropy titration (fluorescence polarization)
Format: binding, human
Settings: 100 nM Alexa-488 peptide in PBS, Fn 0 to 1.4 μM, 20° C.; read-out: dissociation constant Kd to soluble plasma Fn
Procedure: The binding affinities of Fn to FnBPA5 were determined in three independent measurements by anisotropy titrations in a Cary Eclipse Fluorescence Spectrophotometer (Agilent Technologies) equipped with automated polarizers. […] The anisotropy of 100 nM Alexa-488 labelled peptide was measured in PBS at Fn concentrations ranging from 0 to 1.4 μM. […] The Kd values were determined by fitting the data to a one-site-binding model using Origin 7 (OriginLab Northampton, Mass., USA). […]
Where no end group is shown, it is not given here. Alexa 488 = Alexa Fluor 488 fluorescent dye
measured.endpoint: Kd

{"columns": ["substance", "measured.endpoint", "result.value"],
 "data": [
  ["Alexa 488-FnBPA5: FnBPA5 with N-terminal Alexa-488 dye ({Alexa 488}-CGGGQVTTESNLVEFDEESTKGIVTGAVSDHTTVEDTK)", "Kd", "75 nM"],
  ["CGGGQVTTESNLVEFDEESTKGIVTGAVSDHTTVEDTK [FnBPA5]", "Kd", "75 nM"]
]}

Cited source for all entries: patent US11649268B2
